The origin of these recorded values is PubChem BioAssay.

Experiment description: Restrictive medium S. cerevisiae growth inhibition, OD615, pilot screen of yeast lifespan reduction project, restrictive growth control (AID 706);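 also: modified DeaD lifespan yeast strain shifted to restrictive glucose medium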
Cond: OD615, 48 h, at 10 µM, hits give high values
Listed next: entries and their corresponding growth inhibition.
Answer format: numeric, % implied, no suffix.

Below, each entry is followed by its recorded growth inhibition result.
Compound	growth inhibition, %
CCSc1nnc(Cn2c(=O)sc3ccccc32)n1-c1ccccc1C	-4.08
Cc1ccccc1OCc1nc(-c2ccc(-n3cccc3)cc2)no1	-18.9
Cn1c(=O)c2nc(-c3ccc(Cl)cc3Cl)oc2c2ccccc21	-0.105
CSC1=C(C#N)C(c2ccc(C(C)C)cc2)CC(=O)N1 (configuration not stated)	-18.3
O=C(Cn1ncc2c1-c1ccccc1OC2)Nc1nc2ccccc2s1	18.7

input: // lookup growth inhibition for Cc1sc2ncnc(NCCCO)c2c1C
output: -8.24

input: Same read-out for CCCC(=O)N(Cc1cc2cc(C)ccc2[nH]c1=O)c1ccccc1OC ?
output: 1.19

input: Same read-out for COc1cc(OC)nc(NC(=O)C(C)C)n1 ?
output: 6.71

input: Same read-out for COc1ccccc1CNC(=O)CS(=O)Cc1nc(-c2ccccc2C)oc1C (configuration not stated) ?
output: 12.7

input: Same read-out for CCSCCOC(=O)C1=C(C)NC(=O)NC1c1cc(OC)ccc1OC (configuration not stated) ?
output: 4.14

input: Same read-out for COc1cccc(C(=O)Nc2ccc(S(=O)(=O)Nc3onc(C)c3C)cc2)c1 ?
output: -14.8

input: Same read-out for CCc1ccccc1NC1c2ccccc2C(=O)N1Cc1ccco1 (configuration not stated) ?
output: 12.8
